Hi there, I'd appreciate the recorded TGI for every entry that follows.
# System: BT-549 breast
# RUN DESCRIPTION: NCI tumour cell line growth inhibition, 48 h

Below are worked cases with known answers.
>>> print(df.to_string())
                                   compound  target_system  reported_measurement
0  O=C(COc1ccc(/C=C2\Oc3ccc4ccccc4c3C2=O)cc1)c1ccc([N+](=O)[O-])cc1  BT-549 breast               26.4 µM
1            Cc1nc2cn3c(c2c(=O)[nH]1)CCCCC3  BT-549 breast              > 100 µM
2  O=CC(OC(=O)c1ccccc1)C(OC(=O)c1ccccc1)C(COC(c1ccccc1)(c1ccccc1)c1ccccc1)OC(=O)c1ccccc1 (stereo not given)  BT-549 breast              > 100 µM
3  O=C(O)C1C2C=CC(O2)C1C(=O)NCc1cccnc1 (stereo not given)  BT-549 breast              > 100 µM
4  Cc1cc(=O)oc2c(C3=NN(C=O)C(c4ccccc4)C3)c(O)ccc12 (stereo not given)  BT-549 breast              > 100 µM

I need TGI for every entry listed below, if you could help.
1. CCn1cnc(C[C@H](NC(=O)[C@H](CCCCNC(=O)Nc2cc(C(F)(F)F)cc(C(F)(F)F)c2)NC(=O)Nc2cc(C(F)(F)F)cc(C(F)(F)F)c2)C(=O)OC)c1
2. CC(=O)C(N1CCCCC1)C(O)(C(F)(F)F)C(F)(F)F (stereo not given)
3. COC(CNC(=O)CNC(=O)c1ccc(C(F)(F)F)cc1)OC
4. Cc1ccc(C2(O)c3ccccc3C(=O)N(C)C2(O)c2ccc(C)cc2)cc1 (stereo not given)
5. COc1ccc2[nH]c(Cl)c(/C=C3/C(=O)Nc4ccccc43)c2c1
6. Nc1nc(N)c2c(n1)NC(c1sc(Cl)nc1Cl)CC(c1ccccc1)=N2 (stereo not given)
7. O=c1oc2ccc([N+](=O)[O-])cc2nc1/C=C(\O)c1ccccc1
8. C=C1CC[C@@]2(C)[C@@H]([C@@H]1C)[C@H]1CC[C@@H]3[C@@]4(C)CC[C@H](O)C(C)(C)[C@@H]4CC[C@@]3(C)[C@]1(C)C[C@@H]2O

Key:
["> 10 µM", "> 100 µM", "> 100 µM", "> 100 µM", "0.523 µM", "16.1 µM", "> 100 µM", "34.6 µM"]

I need TGI for every entry listed below, if you could help.
1. O=S(=O)(O)c1ccc2c(N=Nc3cccc4ccccc34)c(O)ccc2c1
2. Nc1nc(=O)n(C2CC(O)C(CO)O2)cc1F (stereo not given)

Key:
1. > 100 µM
2. > 100 µM

The origin of these recorded values is PubChem BioAssay (NCI).
